METHOD NOTES: protein stability index of a GFP-peptide fusion (GPS, HEK-293T) (PSI 1-6); higher = more stable;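 also: 24-mer peptide tiles fused after GFP, lentivirally expressed, FACS-sorted into six equal bins by GFP/DsRed ratio, decoded by Illumina sequencing, PSI is the read-weighted mean bin number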
MEASUREMENT SETUP: treatment: DMSO; c terminus: a fixed tail appended
OBSERVATION TYPE: protein stability index

> print(dat)
                                  chain  recorded.number
 1     CINRFQQVESRWGYSGTSDRIRFT [BTBD1]              1.8
 2       TIILQQLLPLRTKVAKLLGYSTHA [NLN]             2.33
 3   LALLVLAHSSDVLENVFSSLTDDK [GOLPH3L]             2.85
 4  PPPPYEAVVSQMDQEQGSSFQMSE [FAM189A2]             5.54
 5      GALMEVMQKRSKAIHSSDEDEDED [WASL]             5.49
 6     DRSRTVSASSTGDLPKAKTRAADL [SRPK2]             4.94
 7     AISITAIAKYSDGASKAAGVFGFF [CMTM3]             2.96
 8     SAIVLGDLKLRKFVFSTEERTQLR [TRIB1]             2.77
 9    ELQQRNPKAERLRWSPAQEESFRQ [ZNF232]              3.3
10    GYTFGQDISETFNHANGLTLVSRA [PPP2CA]             3.26
11     GGTDPHGYHQVPGSAAPGSPLAAD [FOXJ1]             5.11
12     SDENGGTYVSPPGNEEEESKIFTT [DDIT3]             5.53
13     QRQDPAAAQEGEDEGASAGQGPKP [GAGE1]             5.62
14     SKSKEEVSSLISEKTNGATPLLMA [FEM1C]             4.26
15    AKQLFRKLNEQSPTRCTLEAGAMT [SEC22B]             2.45
16     ENEQRRLFIQKEEQLQQILKRKNK [MNAT1]             4.38
17     SSSSSFGSGFGGGYGGGLGAGFGG [KRT16]             2.65
18      QKTRLLEDSVSRLEKEIEVLERGD [PALM]             4.96
19     LRLYKHNSQALLLHSSILTCTLLL [MFSD9]             2.74
20     HRQSFGTNSDVLAQQFALMAPLLF [DCAF4]             2.31
21   ECVWNGSDSVIMTGSYNNFFRMFD [PPP2R2B]             2.23
22     IEETYSKAMAKLSKLASNGTPMGT [FCHO1]              3.4
23      ESIQRIAVHLCNALVCQVDNDHKE [ZER1]             2.81
24   LGTRESDTEVITVEKSSPATSLFV [BCL2L13]             3.84
25    FTNDKIINLPVEEFNELLSKYQLS [NFE2L1]             2.85
26      VVFLSPLTTFQDQLNRRGEFIQEI [OAS1]             2.47
27     CAAVLPGKPGDRNCPEFPPPDRTL [RSPH3]             4.16
